FYI, the data here is from the supplement of paper PMC10567573.

B1: TRIM63 (parent)
chain: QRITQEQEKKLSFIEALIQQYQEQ

# Variants of: B1
# ASSAY SUMMARY: protein stability index of a GFP-peptide fusion (GPS, HEK-293T) (PSI 1-6); higher = more stable;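 note: lentivirally expressed fusions sorted by FACS into six bins by GFP to DsRed ratio, PSI derived from sequencing read proportions per bin multiplied by bin number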
# CONDITION PARAMETERS: c terminus: a fixed tail appended
METRIC NAME: protein stability index
Response field accepts a number only; no unit should be typed.

Look up protein stability index: K10P
2.77

Look up protein stability index: Q1N
2.31

Look up protein stability index: Q20R
2.28

Look up protein stability index: R2S
2.45

Look up protein stability index: F13W
1.68

Look up protein stability index: Q5C
2.39

Look up protein stability index: E6I
1.62

Look up protein stability index: I3W
2.44

Look up protein stability index: Q5F
1.73

Look up protein stability index: Q20K
5.33

Look up protein stability index: I18S
2.94

Look up protein stability index: T4V
2.87

Look up protein stability index: F13G
4.6

Look up protein stability index: I3A
2.37

Look up protein stability index: I18R
3.4

Look up protein stability index: T4Q
2.89

Look up protein stability index: E6A
2.24

Look up protein stability index: E8K
2.12

Look up protein stability index: L17E
4.81

Look up protein stability index: Q24I
2.52

Look up protein stability index: Y21T
3.23

Look up protein stability index: R2L
2.63
